The entries below come with measured remaining activity at 2500 µM values attached.
# EXPERIMENTAL TARGET: E. coli DdlB enzyme (D-alanine:D-alanine ligase) (Escherichia coli, UniProt P07862)
# Construct: made in house; host or cells: E. coli
# ASSAY NAME: biochemical
# CONDITION NOTES: residual activity of DdlB; fragment library screening; tested concentration 2.5 mM; read-out: DdlB RA
Remember to put the unit after the number in your answer.

CC(Oc1ccccc1)C(=O)O (centres unmarked)	99%

Task: // returns reported remaining activity at 2500 µM for input CC(C)c1cccc(O)c1
Result: 95%

Task: Item under review: Nc1ccc(Cl)cc1 . Reported remaining activity at 2500 µM?
Result: 100%

Ref: paper PMC9718554
